experiment: WST-1 cell viability, normal kidney cell line HEK293; format: cell-based; details: human, HEK293 normal kidney cells, HEK293, run 0602-30 min, read-out: survival rate (inhibition effect)
observable: viability at 72 h, 10 µM (%)
# output: bare number, implied unit %

[Q] # query: viability at 72 h, 10 µM of entry "Fc1ccc([C@@H]2CCNC[C@H]2COc2ccc3c(c2)OCO3)cc1"
[A] 64.9

----------
test: WST-1 cell viability, normal pulmonary epithelial cell line BEAS-2B; type: cell-based; conditions: human, BEAS-2B normal bronchial (pulmonary) epithelial cells, BEAS-2B, average of 4 tests, read-out: survival rate (inhibition effect), Average
observable: viability at 72 h, 10 µM (%)
Return type: number; implicit unit %.

[Q] Item under review: "Fc1ccc([C@@H]2CCNC[C@H]2COc2ccc3c(c2)OCO3)cc1" . Reported viability at 72 h, 10 µM?
[A] 98.6

----------
experiment: WST-1 cell viability, normal pulmonary epithelial cell line BEAS-2B; assay type: cell-based; settings: human, BEAS-2B normal bronchial (pulmonary) epithelial cells, summary, pulmonary epithelial cell line, read-out: Inhibitory effect
observable: viability at 72 h, 10 µM (%)
Answer format: numeric, % implied, no suffix.

[Q] Entry "Fc1ccc([C@@H]2CCNC[C@H]2COc2ccc3c(c2)OCO3)cc1" : reported viability at 72 h, 10 µM = ?
[A] 98.6

----------
assay: WST-1 cell viability, normal kidney cell line HEK293; format: cell-based; details: human, HEK293 normal kidney cells, HEK293, average of 4 tests, read-out: survival rate (inhibition effect), Average
observable: viability at 72 h, 10 µM (%)
Respond numerically; units are % and should not be typed.

[Q] Item under review: "Fc1ccc([C@@H]2CCNC[C@H]2COc2ccc3c(c2)OCO3)cc1" . Reported viability at 72 h, 10 µM?
[A] 71.4

----------
experiment: WST-1 cell viability, normal kidney cell line HEK293; type: cell-based; conditions: human, HEK293 normal kidney cells, HEK293, run 0605-30 min, read-out: survival rate (inhibition effect)
observable: viability at 72 h, 10 µM (%)
Answer in %, number only, no unit symbol.

[Q] Requested field: viability at 72 h, 10 µM. Item: "Fc1ccc([C@@H]2CCNC[C@H]2COc2ccc3c(c2)OCO3)cc1"
[A] 76.8

----------
assay: WST-1 cell viability, normal pulmonary epithelial cell line BEAS-2B; format: cell-based; details: human, BEAS-2B normal bronchial (pulmonary) epithelial cells, BEAS-2B, run 0515-10 min, read-out: survival rate (inhibition effect)
observable: viability at 72 h, 10 µM (%)
Please state the figure in %; there is no need to write the unit.

[Q] Recorded viability at 72 h, 10 µM of Fc1ccc([C@@H]2CCNC[C@H]2COc2ccc3c(c2)OCO3)cc1 [Paroxetine] , please.
[A] 96.4

----------
experiment: WST-1 cell viability, normal pulmonary epithelial cell line BEAS-2B; format: cell-based; conditions: human, BEAS-2B normal bronchial (pulmonary) epithelial cells, BEAS-2B, run 0512-10 min, read-out: survival rate (inhibition effect)
observable: viability at 72 h, 10 µM

[Q] Would you kindly share the measured viability at 72 h, 10 µM for "Fc1ccc([C@@H]2CCNC[C@H]2COc2ccc3c(c2)OCO3)cc1" ?
[A] 103%

----------
assay: WST-1 cell viability, normal kidney cell line HEK293; format: cell-based; conditions: human, HEK293 normal kidney cells, HEK293, run 0609-30 min, read-out: survival rate (inhibition effect)
observable: viability at 72 h, 10 µM
Dear colleague, please send the value followed by its unit.

[Q] Name the reported viability at 72 h, 10 µM value associated with the molecule Fc1ccc([C@@H]2CCNC[C@H]2COc2ccc3c(c2)OCO3)cc1 [Paroxetine]
[A] 67.8%

Hey, just so you know, these numbers are from patent US20170304286A1.
